B1: RAB11A (parent)
chain: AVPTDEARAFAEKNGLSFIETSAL

Variants of: B1
Assay: protein stability index of a GFP-peptide fusion (GPS, HEK-293T) (PSI 1-6); higher = more stable;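 further: lentivirally expressed fusions sorted by FACS into six bins by GFP to DsRed ratio, PSI derived from sequencing read proportions per bin multiplied by bin number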
Conditions: c terminus: a fixed tail appended
Everything with protein stability index lower than 3 is 0; everything else, including exactly 3, is 1.

hey, is protein stability index for this one >= 3? AVPTDEARAFAEKNGASFIETSAL 1

hey, is protein stability index for this one >= 3? YVPTDEARAFAEKNGLSFIETSAL 0

Check the entry AVGTDEARAFAEKNGLSFIETSAL : does protein stability index equal or exceed 3? 0

Quick check, protein stability index >= 3? AVPTDEARALAEKNGLSFIETSAL 0

Kindly determine if protein stability index recorded for AVSTDEARAFAEKNGLSFIETSAL is above or exactly 3. 0

Kindly determine if protein stability index recorded for AVPTDCARAFAEKNGLSFIETSAL is above or exactly 3. 0

Hi team, for AVPTDEARACAEKNGLSFIETSAL , is the recorded protein stability index at or above 3? 0

Is reported protein stability index greater than or equal to 3 here: AVPTNEARAFAEKNGLSFIETSAL 0

Exam item: decide whether the reported protein stability index for AVLTDEARAFAEKNGLSFIETSAL is at least 3. 0

Decide: is the reported value of protein stability index for AVPTDEERAFAEKNGLSFIETSAL equal to or greater than 3? 1

Hello, I need to know if AVPTDIARAFAEKNGLSFIETSAL has measured protein stability index not below 3. Thanks! 0

Reported protein stability index reaches at least 3 for AVPTDEARAFAQKNGLSFIETSAL ? 0

Hello, I need to know if AVPTDEARAFTEKNGLSFIETSAL has measured protein stability index not below 3. Thanks! 0

In plain terms: is recorded protein stability index at least 3 for AVPTDEARAFAESNGLSFIETSAL ? 0

Could you tell me if the measured protein stability index of AVPTDEARAFAEKNGLSFIQTSAL reaches 3 or more? 0

Determine whether measured protein stability index meets or exceeds 3 for AVITDEARAFAEKNGLSFIETSAL 0

Hello, I need to know if AVPTDEARAFAEKNGLIFIETSAL has measured protein stability index not below 3. Thanks! 0

API: above_or_equal(metric=protein stability index, cutoff=3) for item AVPTDEASAFAEKNGLSFIETSAL 0

Does the variant AVPTDEARGFAEKNGLSFIETSAL have recorded protein stability index that is 3 or more? 0

Reported protein stability index reaches at least 3 for AGPTDEARAFAEKNGLSFIETSAL ? 0

Would you say AVPTDEARAFAEKNGLSNIETSAL shows protein stability index at minimum 3? 1

Textbook exercise: given the entry AVPTDEARAFAGKNGLSFIETSAL , state whether its protein stability index is greater than or equal to 3. 0

Could you verify whether the entry AVPTDEARAFAEKNGLSFIETTAL shows protein stability index of no less than 3? 0

Could you tell me if the measured protein stability index of AVPTDEKRAFAEKNGLSFIETSAL reaches 3 or more? 0

Decide: is the reported value of protein stability index for AVPTDEARAFAEKNGLSFIECSAL equal to or greater than 3? 0

Check the entry AVPTDEARAFAEKNGLSFIEGSAL : does protein stability index equal or exceed 3? 0

Answer whether protein stability index of AVPTDEARAFAEKGGLSFIETSAL is greater than or equal to 3. 0

Exam item: decide whether the reported protein stability index for ARPTDEARAFAEKNGLSFIETSAL is at least 3. 0

Record AVPTDEARAFHEKNGLSFIETSAL ; criterion: protein stability index no lower than 3. Met? 0

Identify whether the reported protein stability index of the following variant is 3 or greater: AVPTDEARAFAEDNGLSFIETSAL 1

Dear colleague, could you confirm whether AVPTDEARAFAEKNGLSFLETSAL has protein stability index at or above 3? 1

Form field: protein stability index at least 3? Entry: AVPKDEARAFAEKNGLSFIETSAL 0

Threshold query (protein stability index >= 3) on AVPTDEARAFAEKNALSFIETSAL 0

Identify whether the reported protein stability index of the following variant is 3 or greater: AVPNDEARAFAEKNGLSFIETSAL 0

Is it the case that AVPTDEARAFAEKNDLSFIETSAL has protein stability index reaching or exceeding 3? 1

Hi, just wondering whether AVPTDEARAFAEKNGLSFIETSCL shows protein stability index of 3 or higher. 0

Has ACPTDEARAFAEKNGLSFIETSAL a recorded protein stability index greater than or equal to 3? 0

Is protein stability index for AVPTDEARAFAFKNGLSFIETSAL at or above 3? 0

Quick check: does AVPTDEARAFAEKNGLSFIETSAA have protein stability index greater than or equal to 3? 1

Form field: protein stability index at least 3? Entry: AVPTREARAFAEKNGLSFIETSAL 0

Hi, just wondering whether AVPTDEARAFAEKNGLSFIERSAL shows protein stability index of 3 or higher. 0

Please indicate if the recorded protein stability index for AVPTDPARAFAEKNGLSFIETSAL meets or exceeds 3. 0

Threshold query (protein stability index >= 3) on AVPTDEARAFAEKFGLSFIETSAL 0

Has AVPTDEARAFAEKEGLSFIETSAL a recorded protein stability index greater than or equal to 3? 1

Identify whether the reported protein stability index of the following variant is 3 or greater: AVPTDEARAFAEKNGLSFIETWAL 0

State whether the measured protein stability index reaches 3, counting equality as reaching it, for AVPTDEARAFAEKNGLSIIETSAL 1

Is protein stability index at least 3? Consider AVPTDEARAFAEKNGLAFIETSAL 0

Evaluate AVPTDEARAFAEKNGLSFIEHSAL : protein stability index at minimum 3? 0

Quick check, protein stability index >= 3? KVPTDEARAFAEKNGLSFIETSAL 0

Assess whether reported protein stability index for AHPTDEARAFAEKNGLSFIETSAL sits at 3 or higher. 0

I'd appreciate it if you could say whether LVPTDEARAFAEKNGLSFIETSAL has protein stability index at least equal to 3. 0

Assess whether reported protein stability index for AVPTDEARAFAEKNGLSFIETSRL sits at 3 or higher. 0

Evaluate AVPTDEARAFAEKNGLSFIEVSAL : protein stability index at minimum 3? 0

Can AVHTDEARAFAEKNGLSFIETSAL be said to have protein stability index at or above 3? 0

Please check the record AVPMDEARAFAEKNGLSFIETSAL and state if its protein stability index is at or above 3. 0

Decide: is the reported value of protein stability index for AVPTDEARAFAEKNGLSFIETSSL equal to or greater than 3? 0

Can AVPTDEARAFAEKNGLSSIETSAL be said to have protein stability index at or above 3? 1

API: above_or_equal(metric=protein stability index, cutoff=3) for item AVPTDEARAFAEKNGLSRIETSAL 1

Is reported protein stability index greater than or equal to 3 here: AVPTDEARAFAEKNGLGFIETSAL 1

Form field: protein stability index at least 3? Entry: EVPTDEARAFAEKNGLSFIETSAL 0

Test whether the variant AVPTDEARAFAEKNGKSFIETSAL records protein stability index of 3 or higher. 1

Answer whether protein stability index of AVPTDEARNFAEKNGLSFIETSAL is greater than or equal to 3. 0

Entry AVPTDEARAFAEKNGLSFIETNAL : is its protein stability index no less than 3? 1

Record AVPTDEARAFAEFNGLSFIETSAL ; criterion: protein stability index no lower than 3. Met? 0

Exam item: decide whether the reported protein stability index for AVPEDEARAFAEKNGLSFIETSAL is at least 3. 0

Please check the record AVRTDEARAFAEKNGLSFIETSAL and state if its protein stability index is at or above 3. 0

Dear colleague, could you confirm whether AVPTDEARAFAEKNGLSFIETDAL has protein stability index at or above 3? 1

API: above_or_equal(metric=protein stability index, cutoff=3) for item AVPTDEAHAFAEKNGLSFIETSAL 0

Can AVPTDEARAFAEKNGLSFIEDSAL be said to have protein stability index at or above 3? 1

Check the entry AVPTDEARASAEKNGLSFIETSAL : does protein stability index equal or exceed 3? 0

Dear colleague, could you confirm whether IVPTDEARAFAEKNGLSFIETSAL has protein stability index at or above 3? 0

Hi team, for AIPTDEARAFAEKNGLSFIETSAL , is the recorded protein stability index at or above 3? 0

Is reported protein stability index greater than or equal to 3 here: AVPTDEARAFAEKNQLSFIETSAL 0

Could you verify whether the entry AVPTDEAFAFAEKNGLSFIETSAL shows protein stability index of no less than 3? 0

Exam item: decide whether the reported protein stability index for AVPYDEARAFAEKNGLSFIETSAL is at least 3. 0
